- ASSAYED SYSTEM: human vasopressin V2 receptor subtype (Homo sapiens)
- Construct: host or cells: CHO cells, stably transfected (pZeoSV vector)
- Sequence (P30518 whole entry): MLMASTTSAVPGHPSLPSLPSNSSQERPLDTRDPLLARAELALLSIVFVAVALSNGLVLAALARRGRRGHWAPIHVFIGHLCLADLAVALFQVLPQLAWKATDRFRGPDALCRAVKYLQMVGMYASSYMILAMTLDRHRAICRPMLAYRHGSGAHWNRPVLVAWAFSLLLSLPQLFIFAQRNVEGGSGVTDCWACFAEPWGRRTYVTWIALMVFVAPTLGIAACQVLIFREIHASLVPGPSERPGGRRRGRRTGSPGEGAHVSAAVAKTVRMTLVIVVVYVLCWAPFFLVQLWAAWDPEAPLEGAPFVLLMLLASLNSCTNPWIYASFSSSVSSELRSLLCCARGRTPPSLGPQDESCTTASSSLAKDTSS
- ASSAY NAME: Vasopressin binding in CHO cell membranes expressing human vasopressin V2 subtype receptors ([3H]arginine vasopressin radioligand binding)
- RUN PARAMETERS: 100 nM
MEASURED METRIC: inhibition at 0.1 µM (%)

The cases that follow already have their inhibition at 0.1 µM on record.
INSERT INTO measurements (compound, measurement) VALUES
  ('COc1ccccc1-c1ccc(C(=O)N2Cc3ccc(C(=O)NCCc4ccccn4)n3Cc3ccccc32)cc1C [Example 49]', 26),
  ('COc1ccccc1-c1ccc(C(=O)N2Cc3ccc(C(=O)NCc4cccnc4)n3Cc3ccccc32)cc1C [Example 36]', 24);

1. COc1ccccc1-c1ccc(C(=O)N2Cc3ccc(C(=O)N(C)CCc4ccccn4)n3Cc3ccccc32)cc1 [Example 67]
2. Cc1ccccc1-c1ccc(C(=O)N2Cc3ccc(C(=O)N(C)CCc4ccncc4)n3Cc3ccccc32)cc1C [Example 127]
3. Cc1cc(C(=O)N2Cc3ccc(C(=O)N(C)CCc4ccccn4)n3Cc3ccccc32)ccc1-c1ccccc1C(F)(F)F [Example 74]
Rank entries according to their inhibition at 0.1 µM, from the largest number down. Give me the labels in the order the question wants. 1, 2, 3

P. COc1ccccc1-c1ccc(C(=O)N2Cc3ccc(C(=O)NCc4ccccn4)n3Cc3ccccc32)cc1 [Example 26]
Q. COc1cc(C(=O)N2Cc3ccc(C(=O)N(C)CCc4ccccn4)n3Cc3ccccc32)ccc1-c1ccccc1C [Example 69]
Consider P and Q . Which of these has its inhibition at 0.1 µM at a higher number? Choose, then provide that item's label. P
